- Test method notes: Cytotoxicity against human HepG2 cells incubated for 48 hrs by CellTiter Glo assay
- Assay type: cell-based
Experimental endpoint: CC50 at 48 h

>>> experimental_result("CC(C)c1ccc(-c2cc(CN3CCSCC3)nn2C2CCCCC2)cc1")
"40 µM"
>>> experimental_result("CC(C)n1nc(CN2CCOCC2)cc1-c1ccc(C(F)(F)F)cc1")
"> 100 µM"
>>> experimental_result("COC1CCCN(Cc2cc(-c3ccc(C(C)C)cc3)n(-c3ccc(F)cc3)n2)C1 (stereo not given)")
"32 µM"
>>> experimental_result("COC1CCN(Cc2cc(-c3ccc(C(F)(F)F)cc3)n(-c3ccc(F)cc3)n2)CC1")
"31.6 µM"
>>> experimental_result("CC(C)c1ccc(-c2cc(CN3CC[Si](C)(C)CC3)nn2C2CCCCC2)cc1")
"12.6 µM"

Measured values drawn from ChEMBL document CHEMBL4304832 for this set.
